All values here come from BindingDB's records for doi:10.1016/j.bmcl.2011.10.035.

Reported pIC50 values for the following compounds.
biological target: Aldo-keto reductase family 1 member B1 (Homo sapiens); assay: Inhibition of recombinant human aldose reductase using dl-glyceraldehyde as substrate after 10 mins by spectrophotometry
pIC50: −log10 of the molar value.
observedProperty: pIC50

compound	observedProperty	measValue
CC(CC(=O)C[C@@H](C)[C@H]1CC(=O)[C@@]2(C)C3C(=O)C[C@H]4C(C)(C)[C@@H](O)CC[C@]4(C)C3C(=O)C(=O)[C@]12C)C(=O)O (stereo partly drawn)	pIC50	< 3.71
CC(=CC(=O)CC(C)C(=O)O)[C@H]1CC(=O)[C@@]2(C)C3=C(C(=O)C[C@]12C)[C@@]1(C)CCC(=O)C(C)(C)[C@@H]1C[C@@H]3O (stereo partly drawn)	pIC50	< 3.71
CC(CC(=O)C[C@@H](C)[C@H]1CC(=O)[C@@]2(C)C3C(C(=O)C(=O)[C@]12C)[C@@]1(C)CC[C@H](O)C(C)(C)[C@@H]1C[C@@H]3O)C(=O)O (stereo partly drawn)	pIC50	< 3.73
